- Target System: T1, Bbc1, P47068
- T1 sequence (P47068 1-78, looked up): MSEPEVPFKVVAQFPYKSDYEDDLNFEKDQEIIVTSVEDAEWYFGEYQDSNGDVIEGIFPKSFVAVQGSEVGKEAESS
- Protocol Details: SPOT array
- Experimental Parameters: median of control spots 796
Experimental Endpoint: SPOT intensity

Solved cases (2 shown):
KTRLRPAFIQQLWSS	17
YLTRPLPSTPNEDSR	0

(A) LKVTPGRRAPTISKI
(B) KRRTSLFPWLHKPGI
Req: Kindly identify which of A and B has the larger recorded SPOT intensity value. Lab log: write the label of the selected item as the result.
Resp: B
(B: 39, A: 17)
